Entry source: patent US12662479B2

This section presents compounds with their documented DC50 values.
- tgt: HiBit-BRM fusion protein (Homo sapiens, UniProt P51531)
- Construct: expressed in transfected cells
- Sequence (P51531 whole entry, the tested form may be a part): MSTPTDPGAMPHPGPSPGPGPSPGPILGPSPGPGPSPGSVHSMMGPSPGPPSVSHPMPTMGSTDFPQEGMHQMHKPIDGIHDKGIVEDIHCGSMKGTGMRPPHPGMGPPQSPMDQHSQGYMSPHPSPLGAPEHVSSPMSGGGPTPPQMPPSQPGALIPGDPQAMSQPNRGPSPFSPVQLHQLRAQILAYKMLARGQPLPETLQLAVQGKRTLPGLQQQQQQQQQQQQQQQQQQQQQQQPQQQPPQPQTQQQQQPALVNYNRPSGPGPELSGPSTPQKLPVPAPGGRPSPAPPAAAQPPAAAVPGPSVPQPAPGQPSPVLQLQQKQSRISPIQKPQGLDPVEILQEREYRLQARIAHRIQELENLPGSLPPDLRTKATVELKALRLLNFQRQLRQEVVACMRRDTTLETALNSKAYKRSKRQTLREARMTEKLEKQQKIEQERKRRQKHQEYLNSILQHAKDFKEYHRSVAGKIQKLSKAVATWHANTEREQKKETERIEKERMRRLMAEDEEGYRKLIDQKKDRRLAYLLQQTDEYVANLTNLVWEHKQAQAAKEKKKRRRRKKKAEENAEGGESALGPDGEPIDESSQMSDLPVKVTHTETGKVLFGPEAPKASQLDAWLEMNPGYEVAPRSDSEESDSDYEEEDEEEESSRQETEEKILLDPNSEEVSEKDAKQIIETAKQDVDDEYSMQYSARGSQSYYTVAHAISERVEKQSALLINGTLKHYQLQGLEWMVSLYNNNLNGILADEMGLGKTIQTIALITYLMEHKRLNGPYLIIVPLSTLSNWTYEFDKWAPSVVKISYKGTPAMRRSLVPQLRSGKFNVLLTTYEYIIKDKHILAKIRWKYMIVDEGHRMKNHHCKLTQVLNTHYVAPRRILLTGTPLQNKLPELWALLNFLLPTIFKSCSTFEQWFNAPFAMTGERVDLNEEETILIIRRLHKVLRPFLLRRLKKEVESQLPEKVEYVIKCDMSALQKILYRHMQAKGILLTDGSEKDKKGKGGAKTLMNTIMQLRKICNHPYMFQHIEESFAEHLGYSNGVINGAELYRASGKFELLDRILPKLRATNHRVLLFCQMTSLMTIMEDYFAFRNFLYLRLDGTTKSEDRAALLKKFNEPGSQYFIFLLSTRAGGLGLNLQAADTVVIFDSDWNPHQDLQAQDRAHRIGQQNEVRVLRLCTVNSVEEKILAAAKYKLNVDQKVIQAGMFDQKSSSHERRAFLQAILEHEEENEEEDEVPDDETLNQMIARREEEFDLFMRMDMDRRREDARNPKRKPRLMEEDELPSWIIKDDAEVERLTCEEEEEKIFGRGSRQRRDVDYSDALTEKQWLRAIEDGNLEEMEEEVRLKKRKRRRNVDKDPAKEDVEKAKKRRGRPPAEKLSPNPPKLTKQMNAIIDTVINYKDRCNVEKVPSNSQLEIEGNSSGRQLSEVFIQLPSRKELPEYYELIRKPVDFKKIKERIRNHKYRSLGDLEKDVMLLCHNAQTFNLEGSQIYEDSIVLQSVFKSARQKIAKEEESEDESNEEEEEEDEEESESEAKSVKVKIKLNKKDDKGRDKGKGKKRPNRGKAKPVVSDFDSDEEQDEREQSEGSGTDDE
- assay explanation: HiBiT-BRM cell-based degradation assay (Nano-Glo HiBiT Lytic Detection, 24 h)
- measurement parameters: HeLa cells expressing HiBiT-BRM, read-out: BRM HiBit Degradation IC50

Example compounds with recorded DC50:
CS(=O)(=O)n1ccc(C(=O)NCC(=O)Nc2nc(-c3cccc(-c4cccc(CNC(=O)CCCCOc5cccc6c5C(=O)N(C5CCC(=O)NC5=O)C6=O)c4)c3)cs2)c1 (centres unmarked) | > 10 µM
CS(=O)(=O)n1ccc(C(=O)N[C@@H](COCc2ccc(C(=O)N3CC(CCOc4cccc5c4C(=O)N(C4CCC(=O)NC4=O)C5=O)C3)cc2)C(=O)Nc2nc(-c3ccccc3)cs2)c1 (some centres unmarked) | > 10 µM
CS(=O)(=O)n1ccc(C(=O)N[C@@H](CCOCCCC(=O)NCCOCCOCCOCCNC(=O)COc2ccc3c(c2)C(=O)N(C2CCC(=O)NC2=O)C3=O)C(=O)Nc2nc(-c3ccccc3)cs2)c1 (some centres unmarked) | > 10 µM
Cc1ncsc1-c1ccc(CNC(=O)[C@@H]2C[C@@H](O)CN2C(=O)[C@@H](NC(=O)CCCCCCCNC(=O)CN(C)c2cc(-c3cccc(-c4csc(NC(=O)CNC(=O)c5ccn(S(C)(=O)=O)c5)n4)c3)ccn2)C(C)(C)C)cc1 | < 0.1 µM

// next item, DC50 requested
Recorded DC50 of CS(=O)(=O)n1ccc(C(=O)NCC(=O)Nc2nc(-c3cccc(-c4ccnc(C5(C(=O)NCCOc6ccc7c(c6)C(=O)N(C6CCC(=O)NC6=O)C7=O)CC5)c4)c3)cs2)c1 (centres unmarked) , please. 0.1 to 1 µM
